target: TmTsaD;TmTsaB (Thermotoga maritima;Thermotoga maritima, UniProt Q9WXZ2;Q9WZX7 1-327;1-206, |); assay: EMSA; TsaD2B2 tetramer; EMSA: 1 uM 6-FAM-tRNA, 0-100 uM protein, 2% agarose, 20 mM Tris-HCl/50 mM glycine pH 8.5 running buffer (loading buffer for native gels 20 mM Tris-HCl pH 7.5, 300 mM NaCl, 25% glycerol); MST: 10 nM tRNA, 20 mM PBS pH 7.5, 300 mM NaCl, 0.05% Tween 20, 25 C; details: protein: recombinant;recombinant; tags: ;; chain copies: 2;2; label: 5' 6-FAM; tRNA cloverleaf
Sequence (Q9WXZ2 whole entry, chain 1 of 2): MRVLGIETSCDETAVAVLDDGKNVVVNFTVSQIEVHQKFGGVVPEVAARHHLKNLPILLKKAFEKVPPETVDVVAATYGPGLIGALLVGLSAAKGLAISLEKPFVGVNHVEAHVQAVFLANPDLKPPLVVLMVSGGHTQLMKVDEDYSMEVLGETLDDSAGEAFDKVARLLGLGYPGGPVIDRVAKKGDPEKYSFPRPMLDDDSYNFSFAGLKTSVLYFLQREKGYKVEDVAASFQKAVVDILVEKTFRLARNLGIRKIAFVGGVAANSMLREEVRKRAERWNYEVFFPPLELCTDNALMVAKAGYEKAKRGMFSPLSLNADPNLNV
Sequence (Q9WZX7 whole entry, chain 2 of 2): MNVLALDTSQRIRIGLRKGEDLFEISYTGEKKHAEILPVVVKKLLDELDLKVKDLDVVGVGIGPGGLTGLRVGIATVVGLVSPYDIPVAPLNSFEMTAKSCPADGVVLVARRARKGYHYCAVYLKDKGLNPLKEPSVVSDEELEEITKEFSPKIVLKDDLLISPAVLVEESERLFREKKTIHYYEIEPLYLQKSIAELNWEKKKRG
Measure Name: pKd
Keep in mind that pKd stands for -log10 of concentration in molar terms.

IN: What does the record list as pKd for T. maritima tRNALysUUU (structured_RNA) RNA: GACCCGGUAGCUCAGCAGGCAGAGCACCUGACUUUUAAUCAGGGGGUCGUGGGUUCGAAUCCCACCCGGGUCACCA ?
OUT: 5.92

The measurements presented in this section are drawn from paper PMC11648230.
